tested on: Palmitoleoyl-protein carboxylesterase NOTUM (Homo sapiens, UniProt Q6P988)
Sequence (Q6P988 whole entry): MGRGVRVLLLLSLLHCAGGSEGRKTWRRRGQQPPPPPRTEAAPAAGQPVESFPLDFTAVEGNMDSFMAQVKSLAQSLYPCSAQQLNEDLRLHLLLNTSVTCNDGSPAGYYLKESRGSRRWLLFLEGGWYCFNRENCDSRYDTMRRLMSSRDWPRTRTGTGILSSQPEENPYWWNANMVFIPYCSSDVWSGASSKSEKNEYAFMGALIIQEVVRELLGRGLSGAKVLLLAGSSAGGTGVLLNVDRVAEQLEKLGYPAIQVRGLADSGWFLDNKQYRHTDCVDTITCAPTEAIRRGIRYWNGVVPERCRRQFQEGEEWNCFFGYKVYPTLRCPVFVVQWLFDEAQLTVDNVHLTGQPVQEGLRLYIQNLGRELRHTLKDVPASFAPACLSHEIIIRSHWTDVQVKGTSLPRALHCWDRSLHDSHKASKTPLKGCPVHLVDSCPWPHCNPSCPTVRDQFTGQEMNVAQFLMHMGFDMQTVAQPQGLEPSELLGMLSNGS
assay text: Inhibition of Notum 1 (unknown origin) expressed in HEK293 cells harbouring TCF/LEF luciferase reporter gene assessed as modulation of Wnt/beta-catenin signalling pathway preincubated with recombinant Wnt-3A for 1 hr followed by addition to reporter cell plate incubated overnight by luminescence based microplate reader analysis

# structure smiles, EC50
measured = [
    ("O=C(CCC(=O)N1CCc2ccccc21)OCC(F)F", "300 nM"),
]
